Sourced from ChEMBL document CHEMBL1128776

System: HEL
Experiment: Cytotoxic concentration required to reduce cell growth HEL cells (after 3 days) by 50 %
Assay type: functional
Conditions: Homo sapiens, 72 h
measurement.label: CC50 (µg/mL)
Provide the reading as a plain figure in µg/mL.

Given the compound O=C(/C=C/c1cn([C@H]2C[C@H](O)[C@@H](CO)O2)c(=O)[nH]c1=O)c1ccccc1 , what is its reported CC50?
140

Look at this compound and give its reported CC50. O=c1[nH]c(=O)n([C@H]2C[C@H](O)[C@@H](CO)O2)cc1/C=C/Br
150
